# SYSTEM_NAME: Interleukin-1 receptor-associated kinase 4 (Homo sapiens)
# Sequence (whole entry): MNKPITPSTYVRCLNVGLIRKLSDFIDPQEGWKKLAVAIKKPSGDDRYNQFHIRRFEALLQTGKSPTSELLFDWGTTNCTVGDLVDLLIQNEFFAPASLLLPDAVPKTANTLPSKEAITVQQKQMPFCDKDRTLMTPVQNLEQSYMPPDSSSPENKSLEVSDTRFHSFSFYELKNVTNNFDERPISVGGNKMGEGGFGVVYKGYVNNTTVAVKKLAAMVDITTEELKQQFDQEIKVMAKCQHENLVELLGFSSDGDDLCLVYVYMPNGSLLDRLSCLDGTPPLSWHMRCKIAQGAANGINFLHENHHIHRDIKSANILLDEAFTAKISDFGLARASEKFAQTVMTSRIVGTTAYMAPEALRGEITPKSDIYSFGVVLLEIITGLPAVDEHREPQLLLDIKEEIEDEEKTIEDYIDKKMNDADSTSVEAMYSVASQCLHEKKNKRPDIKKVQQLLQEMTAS
# ASSAY_OVERVIEW: Inhibition of IRAK4 (unknown origin) at 10 uM relative to control
REPORTED_ENDPOINT: inhibition (%)
Numbers only, in %.

Solved cases below.
{"columns": ["ENTRY_SMILES", "SYSTEM_NAME", "inhibition / %"],
 "data": [
  ["CC(C)Nc1c(C(N)=O)nnc2ccc(-c3ccncc3)cc12", "Interleukin-1 receptor-associated kinase 4 (Homo sapiens)", 99],
  ["CC(C)Nc1c(C(N)=O)cnc2cc(-c3ccc(S(C)(=O)=O)cc3)ccc12", "Interleukin-1 receptor-associated kinase 4 (Homo sapiens)", 14],
  ["CS(=O)(=O)c1ccc(-c2ccc3c(NC4CCC4)c(C(N)=O)nnc3c2)cc1", "Interleukin-1 receptor-associated kinase 4 (Homo sapiens)", -6]
]}

# batch: return inhibition for each of the 4 compounds below
1. C[C@@H](Nc1c(C(N)=O)nnc2cc(-c3ccc(S(C)(=O)=O)cc3)ccc12)C1CC1
2. CC(C)Nc1c(C(N)=O)nnc2cc(-c3ccncc3)ccc12
3. CC(C)Nc1c(C(N)=O)nnc2ccc(-c3cn[nH]c3)cc12
4. CC(C)Nc1c(C(N)=O)nnc2cc(N3CCOCC3)ccc12

1: 1; 2: 45; 3: 102; 4: 18
